Conditions: buffer; pH 7.4; 200.0 µM
MEASURED_PARAMETER: solubility kinetic (µg/mL)
Lab book: enter the figure in µg/mL, no units written.

Here are 2 compounds together with their reported answers.
[in] Quickly give me recorded solubility kinetic for CCN(CC(=O)Nc1ccc2c(c1)OCCO2)CC(=O)Nc1ccc(C)c([N+](=O)[O-])c1
[out] 7

[in] Report solubility kinetic for O=c1ccc(C(F)(F)F)cn1Cc1cc(=O)n2ccsc2n1
[out] 44.2

Please find the next compound below.
[in] Note down solubility kinetic recorded for O=C(/C=C/c1ccc(Cl)c([N+](=O)[O-])c1)c1cccnc1
[out] 2.2

====

Conditions: buffer; pH 7.4; 200.0 µM
Entries and their log10 solubility kinetic
// do not treat as linear: log10 of solubility kinetic, unit µg/mL

[in] Specify reported log10 solubility kinetic for the molecule shown: CCc1ccc(N2CCN(CCNC(=O)Nc3ccccc3)CC2)cc1
[out] 0.11

[in] Given CCCn1c(=O)c(C(=O)Nc2ncccc2O)c(O)c2ccccc21 , respond with its log10 solubility kinetic.
[out] 0.61

[in] Specify measured log10 solubility kinetic for CC1CN(CCCCSc2ccccc2)CC(C)O1.Cl (stereo not given) .
[out] 1.62

---
[in] Output measured log10 solubility kinetic for this item: Cc1ccc(C(=O)OC(C)CN2CCOCC2)cc1.Cl (stereo not given)
[out] 1.59

[in] Complete the entry with log10 solubility kinetic for Fc1cccc(CN2CCN(c3ccc(Cl)cc3)CC2)c1
[out] 0.61

[in] State its log10 solubility kinetic for this molecule: O=C(Nc1ccncc1)C1CC(=O)N(c2ccc(F)cc2)C1 (stereo not given)
[out] 1.59

[in] Note log10 solubility kinetic for the molecule shown: CCOC(=O)/C(C#N)=C1\C(=O)N(Cc2ccccc2)c2ccccc21
[out] 0.11
